Target: PI3K (Homo sapiens)
Construct: PI3 Kinase γ IC50; other: PI3 Kinase γ; other: PI3 Kinase γ isoform, fluorescence polarization
Sequence (P48736 whole entry, canonical isoform): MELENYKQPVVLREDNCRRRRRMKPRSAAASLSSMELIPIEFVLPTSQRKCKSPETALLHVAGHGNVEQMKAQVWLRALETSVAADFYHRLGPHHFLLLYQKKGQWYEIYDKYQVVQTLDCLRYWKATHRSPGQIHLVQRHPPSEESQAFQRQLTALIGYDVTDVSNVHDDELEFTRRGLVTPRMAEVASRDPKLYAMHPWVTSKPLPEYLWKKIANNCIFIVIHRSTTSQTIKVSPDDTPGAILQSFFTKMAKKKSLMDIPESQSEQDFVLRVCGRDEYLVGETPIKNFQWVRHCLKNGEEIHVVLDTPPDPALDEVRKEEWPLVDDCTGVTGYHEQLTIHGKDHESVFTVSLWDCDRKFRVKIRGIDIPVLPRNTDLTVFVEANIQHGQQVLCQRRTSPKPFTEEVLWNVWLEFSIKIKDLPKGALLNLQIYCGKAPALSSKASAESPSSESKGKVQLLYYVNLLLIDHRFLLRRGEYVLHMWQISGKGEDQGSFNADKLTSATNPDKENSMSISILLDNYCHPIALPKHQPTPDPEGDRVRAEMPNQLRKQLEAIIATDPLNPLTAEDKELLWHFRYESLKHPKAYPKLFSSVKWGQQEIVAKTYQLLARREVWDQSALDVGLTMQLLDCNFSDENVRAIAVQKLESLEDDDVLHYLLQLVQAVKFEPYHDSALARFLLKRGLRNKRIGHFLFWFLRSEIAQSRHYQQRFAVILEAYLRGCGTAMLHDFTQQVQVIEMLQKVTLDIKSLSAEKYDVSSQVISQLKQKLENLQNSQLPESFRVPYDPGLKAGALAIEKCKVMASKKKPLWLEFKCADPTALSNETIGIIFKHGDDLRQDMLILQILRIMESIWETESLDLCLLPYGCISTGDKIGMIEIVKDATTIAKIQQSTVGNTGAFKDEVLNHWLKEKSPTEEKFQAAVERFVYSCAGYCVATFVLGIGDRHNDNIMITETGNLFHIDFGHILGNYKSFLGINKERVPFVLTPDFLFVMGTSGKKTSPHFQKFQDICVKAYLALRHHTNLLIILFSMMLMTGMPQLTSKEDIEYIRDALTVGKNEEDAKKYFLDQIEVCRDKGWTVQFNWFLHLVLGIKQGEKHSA
Experiment: Fluorescence polarization assay for PI3K
Format: biochemical
Details: PI3 Kinase γ isoform, fluorescence polarization; read-out: PI3 Kinase γ IC50
Property: IC50; scope: individual molecules
assay.endpoint: IC50 (µM)

molecule: CC(=O)Nc1ccc(-c2nc(N3CC4CCC(C3)O4)c3sccc3n2)cc1 [Example 415]
assayed.target: PI3K (Homo sapiens)
assay.endpoint: IC50
limit.qualifier: >
measurement: 10
//
molecule: Oc1cccc(-c2nc(N3C[C@@H]4C[C@H]3CO4)c3cnn(-c4ccccc4)c3n2)c1 [Example 382]
assayed.target: PI3K (Homo sapiens)
assay.endpoint: IC50
limit.qualifier: =
measurement: 11.6
//
molecule: CCNC(=O)Nc1ccc(-c2nc(N3CC4CCC(C3)O4)c3cnn(C4CCC(N5CCN(C)CC5)CC4)c3n2)cc1 (stereo not shown) [Example 370]
assayed.target: PI3K (Homo sapiens)
assay.endpoint: IC50
limit.qualifier: =
measurement: 6.51
//
molecule: COC1CCC(n2ncc3c(N4CC5CCC(C4)O5)nc(-c4ccc(NC(=O)NC5CC5)cc4)nc32)CC1 (stereo not shown) [Example 302]
assayed.target: PI3K (Homo sapiens)
assay.endpoint: IC50
limit.qualifier: =
measurement: 8.02
//
molecule: c1cncc(CN2CCC(n3ncc4c(N5CC6CCC(C5)O6)nc(-c5ccc6[nH]ccc6c5)nc43)CC2)c1 [Example 394]
assayed.target: PI3K (Homo sapiens)
assay.endpoint: IC50
limit.qualifier: =
measurement: 9.5
//
molecule: COCC(COC)n1ncc2c(N3CC4CCC(C3)O4)nc(-c3ccc(NC(=O)Nc4ccncc4)cc3)nc21 [Example 325]
assayed.target: PI3K (Homo sapiens)
assay.endpoint: IC50
limit.qualifier: =
measurement: 4.98
//
molecule: O=C(Nc1ccc(-c2nc(N3CC4CCC(C3)O4)c3cnn([C@H]4CC[C@H](O)CC4)c3n2)cc1)NC1CC1 (relative stereo) [Example 403]
assayed.target: PI3K (Homo sapiens)
assay.endpoint: IC50
limit.qualifier: >
measurement: 10
